# target entity: human sigma 1 receptor (Homo sapiens)
# Construct: expressed in transfected cells; host or cells: HEK-293
# Sequence (Q99720 whole entry): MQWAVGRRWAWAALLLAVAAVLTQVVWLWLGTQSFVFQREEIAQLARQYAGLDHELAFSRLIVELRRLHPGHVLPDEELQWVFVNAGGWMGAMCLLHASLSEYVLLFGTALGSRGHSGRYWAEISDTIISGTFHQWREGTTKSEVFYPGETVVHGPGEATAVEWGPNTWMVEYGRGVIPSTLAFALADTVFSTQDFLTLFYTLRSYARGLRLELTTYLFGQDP
# assay protocol: Human sigma 1 receptor radioligand assay ([3H](+)-pentazocine, transfected HEK-293 membranes)
# Assay type: binding
# condition: 5 nM [3H](+)-pentazocine, transfected HEK-293 membranes, 37° C., 120 minutes; read-out: Ki
# Method: Human Sigma 1 Receptor Radioligand Assay The assay was carried out with 7 μg of membrane suspension, 5 nM of [^3H](+)-pentazocine in either absence or presence of either buffer or 10 μM Haloperidol for total and non-specific binding, respectively. Binding buffer contained Tris-HCl 50 mM at pH 8. […] Filters were dried and counted at approximately 40% efficiency in a MicroBeta scintillation counter (Perkin-Elmer) using EcoScint liquid scintillation cocktail.
parameter: Ki (nM)
Output spec: scalar in nM, unitless text.

Look over these answered cases.
> print(dat)
                                   molecule                          target.entity  parameter  recorded.number
1  Cl.Fc1ccc(-c2nnn3c2CO[C@H]2CN(CC4CCOCC4)C[C@@H]23)c(Cl)c1 [Example 43, hydrochloride]  human sigma 1 receptor (Homo sapiens)         Ki             20.5
2  Cl.Fc1ccc(CN2C[C@@H]3[C@@H](C2)OCc2c(-c4ccncc4)nnn23)cc1 (racemic) [Example 26, hydrochloride]  human sigma 1 receptor (Homo sapiens)         Ki              133
3  Cl.Fc1ccc(-c2nnn3c2CO[C@H]2CN(C4CCOCC4)C[C@@H]23)cc1 [Example 4, hydrochloride]  human sigma 1 receptor (Homo sapiens)         Ki               23
4  Cl.Fc1ccccc1-c1nnn2c1CO[C@@H]1CN(Cc3ccncc3)C[C@H]12 (racemic) [Example 2, hydrochloride]  human sigma 1 receptor (Homo sapiens)         Ki              315

Query: # value lookup — system human sigma 1 receptor (Homo sapiens), readout Ki, item COc1ccc(-c2nnn3c2CO[C@H]2CN(C4CCOCC4)C[C@@H]23)cn1.Cl [Example 8, hydrochloride]
Reply: 227
